Give measured % Splenocyte proliferation for each item. Keep answers brief.
- TGT: PD-L1 expressed on MDA-MB-231 cells (UniProt Q9NZQ7 19-290, limits assumed)
- Sequence (Q9NZQ7 19-290 limits assumed): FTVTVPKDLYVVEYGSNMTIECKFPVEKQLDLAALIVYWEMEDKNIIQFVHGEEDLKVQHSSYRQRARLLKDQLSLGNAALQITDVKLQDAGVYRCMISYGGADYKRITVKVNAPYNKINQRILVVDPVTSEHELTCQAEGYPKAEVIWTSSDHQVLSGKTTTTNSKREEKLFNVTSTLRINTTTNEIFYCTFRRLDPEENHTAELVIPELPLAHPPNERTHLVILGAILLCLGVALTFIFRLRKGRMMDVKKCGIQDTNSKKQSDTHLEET
- TEST_METHOD_NOTES: cell-based or functional assay
Bridges are numbered along the chain shown (N, C = ends). Where no end group is shown, it is not given here.
Give just the numeric value; % need not be written.

Return the recorded % Splenocyte proliferation value; entry: SETSKVF (not fully specified; also: cyclic, bridge and C-terminus not given here) [Compound 7]
52

Return the recorded % Splenocyte proliferation value; entry: SETSKSI (not fully specified; also: cyclic, bridge and C-terminus not given here) [Compound 5]
42

Return the recorded % Splenocyte proliferation value; entry: SETSKSFE (not fully specified; also: cyclic, bridge and C-terminus not given here) [Compound 20]
36

Return the recorded % Splenocyte proliferation value; entry: IEMSKVQ-OH (lactam 2-5) [Compound 12]
39

Entry source: patent US20150125491A1
